biological target: HER2 S310F (Homo sapiens, UniProt P04626, S310F); construct: expressed in transfected cells; host or cells: BaF3 (murine pro-B); test: BaF3 cell proliferation assay, HER2 S310F (Table B); type: cell-based; conditions: potency code, 3 days, CellTiterGlo, read-out: HER2 S310F (Activity for Inhibiting HER2)
Sequence (P04626 23-1255 S310F): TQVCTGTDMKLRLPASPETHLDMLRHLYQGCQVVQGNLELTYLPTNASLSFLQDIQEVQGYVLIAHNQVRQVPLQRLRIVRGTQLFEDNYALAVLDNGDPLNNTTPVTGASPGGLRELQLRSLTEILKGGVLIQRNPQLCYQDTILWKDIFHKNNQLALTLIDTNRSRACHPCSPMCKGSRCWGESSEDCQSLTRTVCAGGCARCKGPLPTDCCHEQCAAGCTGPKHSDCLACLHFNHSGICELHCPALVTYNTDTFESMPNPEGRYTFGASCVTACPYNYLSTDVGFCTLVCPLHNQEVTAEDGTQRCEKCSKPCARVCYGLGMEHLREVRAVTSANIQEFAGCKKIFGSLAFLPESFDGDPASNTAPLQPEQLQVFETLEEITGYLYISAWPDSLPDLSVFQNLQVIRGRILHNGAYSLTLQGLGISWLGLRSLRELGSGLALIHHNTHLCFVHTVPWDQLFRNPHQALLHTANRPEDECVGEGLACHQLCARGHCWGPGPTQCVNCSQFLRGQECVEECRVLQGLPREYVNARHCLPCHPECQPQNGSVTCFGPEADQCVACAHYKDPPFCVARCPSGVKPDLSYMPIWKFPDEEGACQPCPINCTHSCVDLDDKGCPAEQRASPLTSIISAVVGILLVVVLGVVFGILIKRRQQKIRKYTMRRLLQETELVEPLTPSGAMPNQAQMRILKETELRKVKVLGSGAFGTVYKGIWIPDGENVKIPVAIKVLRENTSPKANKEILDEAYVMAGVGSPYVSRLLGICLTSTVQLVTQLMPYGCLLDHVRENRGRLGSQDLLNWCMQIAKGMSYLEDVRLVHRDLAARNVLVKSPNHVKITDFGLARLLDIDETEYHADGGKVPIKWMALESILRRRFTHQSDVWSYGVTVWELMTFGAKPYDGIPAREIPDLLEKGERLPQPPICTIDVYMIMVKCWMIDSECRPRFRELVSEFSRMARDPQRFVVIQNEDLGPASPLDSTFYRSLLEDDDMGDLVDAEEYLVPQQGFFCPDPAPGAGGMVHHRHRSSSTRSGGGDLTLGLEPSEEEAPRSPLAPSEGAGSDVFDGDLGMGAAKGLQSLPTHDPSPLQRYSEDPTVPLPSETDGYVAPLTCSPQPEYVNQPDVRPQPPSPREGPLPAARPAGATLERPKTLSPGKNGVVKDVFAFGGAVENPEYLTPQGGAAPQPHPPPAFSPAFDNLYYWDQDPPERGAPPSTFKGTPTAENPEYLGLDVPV
pIC50: −log10 of the molar value.

# Compound, pIC50
rows = [
    ("C=CC(=O)Nc1cc2c(Nc3ccc(OCc4cnccn4)c(Cl)c3)ncnc2cc1OCCN1CC2CCC(C1)O2 [compound 175]", "7.52 to 7.70"),
    ("C=CC(=O)Nc1cc2c(Nc3ccc(OCc4ccccn4)c(Cl)c3)ncnc2cc1OCCN1CC2CC1CO2 (stereo not shown) [compound 39]", "7.70 to 8.00"),
    ("C=CC(=O)Nc1cc2c(Nc3ccc(OCc4ccccn4)c(Cl)c3)ncnc2cc1N1CCC(N(C)C)CC1 [compound 78]", "7.00 to 7.30"),
    ("C=CC(=O)Nc1cc2c(Nc3ccc(OCc4cccc(F)n4)c(Cl)c3)ncnc2cc1OCCN1CCN(C)CC1 [compound 158]", "7.30 to 7.52"),
    ("C=CC(=O)Nc1cc2c(Nc3ccc(OCc4ccccn4)c(Cl)c3)ncnc2cc1OC[C@H]1CCN(C)C1 [compound 101]", "7.70 to 8.00"),
    ("C=CC(=O)Nc1cc2c(Nc3ccc(OCc4ccccn4)c(Cl)c3)ncnc2cc1OCC1CCCN1 (stereo not shown) [compound 13]", "7.30 to 7.52"),
    ("C=CC(=O)Nc1cc2c(Nc3ccc(OCc4ccccn4)c(Cl)c3)ncnc2cc1OCCN1CC2COCC2C1 (stereo not shown) [compound 51]", "7.70 to 8.00"),
    ("CC#CC(=O)Nc1cc2c(Nc3ccc(OCc4ccccn4)c(Cl)c3)ncnc2cc1OC1CCN(C)C1 (stereo not shown) [compound 67]", "7.70 to 8.00"),
    ("C=CC(=O)Nc1cc2c(Nc3ccc(OCc4ccccn4)c(Cl)c3)ncnc2cc1N1CC(N2CCOCC2)C1 [compound 44]", "6.30 to 6.52"),
    ("C=CC(=O)Nc1cc2c(Nc3ccc(OCc4ccccn4)c(Cl)c3)ncnc2cc1OCCn1ccnc1 [compound 10]", "7.52 to 7.70"),
    ("C=CC(=O)Nc1cc2c(Nc3ccc(OCc4ccccn4)c(Cl)c3)ncnc2cc1OCCCN1CC2CC1CO2 (stereo not shown) [compound 20]", "7.70 to 8.00"),
    ("C=CC(=O)Nc1cc2c(Nc3ccc(OCc4ccccn4)c(Cl)c3)ncnc2cc1C#CC(C)(C)N1CCN(C)CC1 [compound 65]", "7.70 to 8.00"),
    ("C=CC(=O)Nc1cc2c(Nc3ccc(OCc4cccc(F)c4)c(Cl)c3)ncnc2cc1OCCCN1CCOCC1 [compound 3]", "7.52 to 7.70"),
]

----------
biological target: HER2 YVMA (Homo sapiens, UniProt P04626, INS775YVMA); construct: expressed in transfected cells; host or cells: BaF3 (murine pro-B); assay: BaF3 cell proliferation assay, HER2 YVMA (Table B); format: cell-based; details: potency code, 3 days, CellTiterGlo, read-out: HER2 YVMA (Activity for Inhibiting HER2)
Sequence (P04626 with tags, fused parts or gaps INS775YVMA): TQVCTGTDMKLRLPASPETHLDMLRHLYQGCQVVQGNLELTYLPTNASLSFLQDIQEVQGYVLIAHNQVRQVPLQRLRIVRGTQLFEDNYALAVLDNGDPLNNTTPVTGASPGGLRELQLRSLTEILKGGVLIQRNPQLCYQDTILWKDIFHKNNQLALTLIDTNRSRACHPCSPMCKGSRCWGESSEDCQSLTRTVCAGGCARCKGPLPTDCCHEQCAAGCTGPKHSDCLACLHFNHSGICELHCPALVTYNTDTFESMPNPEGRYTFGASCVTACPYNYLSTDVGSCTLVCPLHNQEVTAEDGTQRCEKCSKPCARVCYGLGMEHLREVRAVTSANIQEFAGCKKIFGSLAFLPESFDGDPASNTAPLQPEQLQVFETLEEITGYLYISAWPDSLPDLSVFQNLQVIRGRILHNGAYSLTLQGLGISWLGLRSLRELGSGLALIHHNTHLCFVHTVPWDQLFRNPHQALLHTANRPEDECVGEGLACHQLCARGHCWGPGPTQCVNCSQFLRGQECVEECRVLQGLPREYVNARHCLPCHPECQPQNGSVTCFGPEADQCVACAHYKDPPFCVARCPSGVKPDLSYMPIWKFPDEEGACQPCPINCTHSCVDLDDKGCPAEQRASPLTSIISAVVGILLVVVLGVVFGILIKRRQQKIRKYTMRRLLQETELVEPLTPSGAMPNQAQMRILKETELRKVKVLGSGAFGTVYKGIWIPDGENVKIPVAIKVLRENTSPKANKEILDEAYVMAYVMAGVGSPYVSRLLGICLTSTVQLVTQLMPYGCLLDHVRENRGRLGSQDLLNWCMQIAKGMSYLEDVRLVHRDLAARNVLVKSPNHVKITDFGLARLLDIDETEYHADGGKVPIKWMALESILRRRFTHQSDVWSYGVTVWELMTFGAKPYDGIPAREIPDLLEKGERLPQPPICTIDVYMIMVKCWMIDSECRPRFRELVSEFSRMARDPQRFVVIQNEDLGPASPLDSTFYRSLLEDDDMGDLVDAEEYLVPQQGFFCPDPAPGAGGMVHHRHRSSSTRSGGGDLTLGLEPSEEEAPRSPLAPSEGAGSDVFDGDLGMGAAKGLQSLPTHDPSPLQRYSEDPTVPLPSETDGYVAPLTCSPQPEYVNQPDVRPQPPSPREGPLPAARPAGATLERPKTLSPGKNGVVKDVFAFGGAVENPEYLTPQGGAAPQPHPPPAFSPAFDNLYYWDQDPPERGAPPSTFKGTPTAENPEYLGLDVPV
Attribute measured: IC50

# Molecule, Reported result
rows = [
    ("C=CC(=O)Nc1cc2c(Nc3ccc(OCc4ccccn4)c(Cl)c3)ncnc2cc1OC1CN(C)C1", "50 to 100 nM"),
    ("CC#CC(=O)Nc1cc2c(Nc3cc(Cl)c(OCc4cccc(F)c4)cc3F)ncnc2cc1OCCN1CCOCC1", "30 to 50 nM"),
    ("C=CC(=O)Nc1cc2c(Nc3ccc(OCc4ccccn4)c(Cl)c3)ncnc2cc1OCCN1CCOCC1", "50 to 100 nM"),
    ("C=CC(=O)Nc1cc2c(Nc3ccc(Oc4ccccc4)cc3)ncnc2cc1C#C[C@@H]1[C@H]2CN(C)C[C@@H]12", "100 to 200 nM"),
    ("C=CC(=O)Nc1cc2c(Nc3ccc(OCc4ccccn4)c(Cl)c3)ncnc2cc1OCCN1CCC(OC)C1 (centres unmarked)", "50 to 100 nM"),
    ("C=CC(=O)Nc1cc2c(Nc3ccc(OCc4ccccn4)c(Cl)c3)ncnc2cc1OCC1(CN(C)C)CC1", "200 to 300 nM"),
    ("C=CC(=O)Nc1cc2c(Nc3ccc(OCc4ccccn4)c(Cl)c3)ncnc2cc1C#C[C@@H]1CCCN1C", "200 to 300 nM"),
    ("C=CC(=O)Nc1cc2c(Nc3ccc(OCc4ccncn4)c(Cl)c3)ncnc2cc1OCCCN1CCOCC1", "100 to 200 nM"),
    ("C=CC(=O)Nc1cc2c(Nc3ccc(OCc4ccccn4)c(Cl)c3)ncnc2cc1OCCN1CC2(CCN2C)C1", "50 to 100 nM"),
    ("C=CC(=O)Nc1cc2c(Nc3ccc(OCc4ccccn4)c(Cl)c3)ncnc2cc1OCCC1COCCN1C (centres unmarked)", "50 to 100 nM"),
    ("C=CC(=O)Nc1cc2c(Nc3ccc(OCc4ccccn4)c(Cl)c3)ncnc2cc1OCCN(C)C1CC1", "100 to 200 nM"),
    ("C=CC(=O)Nc1cc2c(Nc3ccc(OCc4ccccn4)nc3)ncnc2cc1OCCN1CCOCC1", "> 1000 nM"),
    ("CC#CC(=O)Nc1cc2c(Nc3ccc(OCc4ccccn4)c(Cl)c3)ncnc2cc1OCCN1CCOCC1", "5 to 10 nM"),
    ("C=CC(=O)Nc1cc2c(Nc3cc(Cl)c(OCc4cccc(F)c4)cc3F)ncnc2cc1OCCCN1CC(OC)C1", "300 to 500 nM"),
]
